Source: PubChem BioAssay (NCI)

# Test system: UO-31 renal
# protocol.text: NCI tumour cell line growth inhibition, 48 h
quantity.measured: TGI

Prompt: So what does the record say about TGI for Oc1ccc(C=Nc2ccccc2O)cc1 ?
Completion: > 100 µM

Prompt: Consider the compound shown here: CN=C1Nc2ccccc2C(=O)N2CSCC12 (stereo unspecified) What is its recorded TGI?
Completion: > 100 µM

Prompt: Please look up its TGI: CC1(C)OC2C(CCP(=O)(O)O)OC(c3nc(C(N)=O)cs3)C2O1 (stereo unspecified)
Completion: > 100 µM

Prompt: TGI for COC(=O)[C@]12CC3C=CC1N(C3)C(CBr)c1c2n(S(=O)(=O)c2ccccc2)c2ccccc12 (stereo partly specified) ?
Completion: > 100 µM

Prompt: Entry O=C1C=C(Nc2ccc(Cl)cc2Cl)c2ccccc2C1=O : reported TGI = ?
Completion: > 100 µM

Prompt: Quick one: TGI for CSC1=N/C(=C\c2ccc(Cl)cc2)C(=O)N1CN1CCCCC1 ?
Completion: > 100 µM

Prompt: TGI lookup needed for CC(C)(C)C1=CC(=C(P(=O)(O)O)P(=O)(O)O)C=C(C(C)(C)C)C1=O , thanks.
Completion: > 50 µM

Prompt: Which TGI value is on record for C=C(Cl)C(Cl)(CBr)CCC(Br)C(C)(C)Br (stereo unspecified) ?
Completion: 20.1 µM

Prompt: Name the reported TGI value associated with the compound CCN1CCC(O)(c2ccc(Oc3ccc(Cl)cc3)cc2)C(C(=O)c2ccc(Oc3ccc(Cl)cc3)cc2)C1 (stereo unspecified)
Completion: 28.1 µM

Prompt: Given O=C(Nc1ccccc1)c1cc(S(=O)(=O)Nc2n[nH]c(=O)n2-c2ccccc2)c(S)cc1Cl , state its recorded TGI.
Completion: > 100 µM

Prompt: Consider the compound shown here: COc1ccc(C(=O)C#Cc2cn(C3CC(O)C(CO)O3)c(=O)[nH]c2=O)cc1 (stereo unspecified) What is its recorded TGI?
Completion: > 100 µM

Prompt: Name the reported TGI value associated with the compound COC(=O)c1c([N+](=O)[O-])ncn1[C@H]1OC[C@@H](OC(C)=O)[C@@H](OC(C)=O)[C@@H]1OC(C)=O
Completion: > 100 µM

Prompt: Look up TGI: CCOC(=O)c1nc2cc(C(F)(F)F)ccc2nc1Oc1ccc(C#N)cc1
Completion: > 100 µM

Prompt: // TGI lookup, key: O=C1Nc2c(ccc(Cl)c2Cl)/C1=C/c1cc(Br)c(O)c(Br)c1
Completion: > 49.7 µM

Prompt: If you can, please state the reported TGI value of CC(=O)c1nc2ccccc2n1C(C)C(=O)c1ccccc1 (stereo unspecified) .
Completion: > 100 µM

Prompt: Look at this compound and give its reported TGI. Cc1cc(NC2=CC(=O)C(=O)c3ccccc32)no1
Completion: 20.4 µM

Prompt: Quick one: TGI for CC(=O)O[C@@H]1C[C@]2(C(=O)c3ccccc3)C(=O)C(=O)S[C@]12c1ccccc1 ?
Completion: > 100 µM

Prompt: Using the record for COc1ccc2c(c1)C(=O)c1c-2n(CCCN(C)C)c(=O)c2ccccc12 , report its TGI.
Completion: 0.811 µM

Prompt: Reported TGI, compound COC1/C=C(C)/C=C/C(C)/C=C/C(=O)OC(/C(C)=C/C=C(\C)CNC(=O)[C@H](CO)NC=O)C(C)/C=C/C=C/C(OC)CC/C=C(C)/C=C/C1 (stereo partly specified) : ____
Completion: > 0.735 µM

Prompt: Requested read-out: TGI. Entry: CCN(CC)CCCNc1nccc2c(C)c3c(cc12)c1cnccc1n3C
Completion: 2.32 µM

Prompt: Need TGI, item C=CCC1(CN(C)C)CC/C(=C\c2ccc(OC)cc2)C1=O (stereo unspecified)
Completion: > 100 µM

Prompt: Look up TGI for this compound: O=C1N[C@@H]2[C@@H](O)[C@@H](O)[C@H](O)C[C@H]2c2cc3c(c(O)c21)OCCO3
Completion: 1.72 µM

Prompt: // returns reported TGI for input O=C(O)c1cc(-c2ccc3cc4c(cc3c2)OCO4)nc2ccccc12
Completion: 28.1 µM

Prompt: // TGI lookup, key: COc1ccc(S(=O)(=O)N2C(=O)CCC2C(=O)NC(N)=O)cc1 (stereo unspecified)
Completion: > 100 µM

Prompt: Which TGI is reported for this compound? O=C(CSc1nc2c(n1Nc1ccccc1)-c1ccccc1SC2)Nc1nc(-c2ccc(Cl)cc2)cs1
Completion: > 100 µM

Prompt: Would you mind telling me what TGI value was observed for NC(=O)NNC(=O)CCn1[nH]c(=O)c(Cl)c(Cl)c1=O ?
Completion: > 100 µM

Prompt: Given the compound CC(=O)Nc1ccc(/C=C/C(=O)c2sc(-c3cccnc3)nc2C)cc1 , what is its reported TGI?
Completion: > 100 µM

Prompt: Field request: TGI | item: CC(C)[N+]([O-])(CCCNc1c2ccccc2nc2cccc([N+](=O)[O-])c12)C(C)C
Completion: 1.35 µM

Prompt: Returns the measured TGI for the input compound. Input: CCOC(OC(C)=O)[C@@H]1C=C[C@H](C)N(c2ccc([N+](=O)[O-])cc2)O1 (stereo partly specified)
Completion: 9.16 µM

Prompt: Return reported TGI; argument: COc1ccc(C2SC(N)=Nc3c2c(C)nn3C(=O)c2ccccc2O)cc1OC (stereo unspecified)
Completion: > 10 µM

Prompt: Any idea what its TGI is? The compound is Cc1ccc(O)c(C(c2cccc(C(c3cc(C)ccc3O)c3cc(C)ccc3O)c2)c2cc(C)ccc2O)c1
Completion: 3.34 µM

Prompt: Reported TGI, compound Cc1ccc2c(c1)SC1=Nc3sc4cc(C)ccc4[n+]3CN12 : ____
Completion: > 100 µM

Prompt: For the compound shown here, COc1ccc(/C=C\c2cc(OC)c(OC)c(OC)c2)cc1OCC(=O)Nc1nc2ccc(F)cc2s1 , give the reported TGI.
Completion: > 100 µM

Prompt: Which TGI reading was recorded for the compound CCOC(=O)C(C(=O)OCC)=C1SC(=Nc2ccccc2)C(=Nc2ccccc2)N1c1ccccc1 ?
Completion: > 100 µM

Prompt: Would you mind telling me what TGI value was observed for CC(=O)OCCn1cnc2c(NCC=C(C)C)ncnc21 ?
Completion: > 100 µM

Prompt: Suppose we examine the compound COc1cc2c(cc1OC(C)C)[C@H](c1ccc(Cl)cc1)N(c1ccc(N(C)CC3CCC(N4CCN(C)C(=O)C4)CC3)cc1)C(=O)C2 (stereo partly specified) ; what TGI value has been reported?
Completion: 2.22 µM

Prompt: Would you mind telling me what TGI value was observed for Cc1c(-c2cnccn2)ssc1=S ?
Completion: > 89.7 µM

Prompt: Give the measured TGI of C=CSCCC(N)C(=O)O (stereo unspecified) .
Completion: > 100 µM

Prompt: Tell me the measured TGI of C=CCN(c1cc(OC)c(NC(C)=O)cc1[N+](=O)[O-])S(C)(=O)=O , please.
Completion: > 100 µM

Prompt: GET /values?readout=TGI&item= O=c1nc2n3c4c(cccc4nc-2c(=O)[nH]1)CCC3
Completion: > 100 µM

Prompt: What value of measured TGI is listed for COc1ccc(N=c2oc3ccccc3cc2C(N)=O)cc1 ?
Completion: 14.8 µM

###

# Test system: MDA-MB-435
# protocol.text: NCI tumour cell line growth inhibition, 48 h
For each entry below, report its TGI value.
Quick reminder: number only, in µM, skip the unit.

Prompt: Could you tell me which TGI is on file for Cc1c2ccccc2c(C2C3C(=O)N(c4ccc(Br)cc4)C(=O)C3ON2C(C(N)=O)c2ccccc2)c2ccccc12 (stereo unspecified) ?
Completion: 12.9

Prompt: Fill in the blank: the reported TGI of CC(=O)O[C@@H]1C2CCC3C(CC[C@@]4(C)C3CC[C@@H]4C(C)N(C)C)[C@@]2(C)CC[C@@H]1NC(=O)C=C(C)C (stereo partly specified) is ____.
Completion: 4.26

Prompt: Look up TGI: COc1cc(C(=O)NC2CCc3cc(OC)c(OC)c(OC)c3-c3ccc(OC)c(=O)cc32)cc(OC)c1OC (stereo unspecified)
Completion: 0.0961

Prompt: Report TGI for Nc1nc(/C=C\c2ccc([N+](=O)[O-])s2)nc(N2CCN(c3ccccc3)CC2)n1 please.
Completion: 43.6

Prompt: // TGI lookup, key: OC(CNc1ccnc2cc(Cl)ccc12)CNc1ccnc2cc(Cl)ccc12
Completion: 3.1

Prompt: # query: TGI of entry O=c1c2ccccc2sc2c(NCCCNCCO)nc3ccccc3c12
Completion: 3.25

Prompt: Suppose we examine the compound Cc1cc(NC2=CC(=O)C(=O)c3ccccc32)no1 ; what TGI value has been reported?
Completion: 3.34

Prompt: So what does the record say about TGI for CC(C)[N+]([O-])(CCCNc1c2ccccc2nc2cccc([N+](=O)[O-])c12)C(C)C ?
Completion: 0.0758

Prompt: Item CCCCCCCCCCCCCCCC1=NCC[N+]1(CCO)CCO has what recorded TGI?
Completion: 4.4

Prompt: Which TGI is listed for CC(/C=C/C(=O)NO)=C\C(C)C(=O)c1ccc(N(C)C)cc1 (stereo unspecified) ?
Completion: 0.0467
